// data source = ChEMBL document CHEMBL4513216

assay: Toxicity liver stage against HepG2, at 10uM; format: cell-based; parameters: test concentration 10 uM, cell line HepG2-A16-CD81EGFP; details: human, HepG2-A16-CD81EGFP cells; read-out: INHIBITION
Provide the recorded cytotoxicity at 10 µM for the entries that follow.
Write it as a number; the unit % goes unstated.

Data request: Please report the recorded cytotoxicity at 10 µM for Cc1cnn(C2CCCN(C(=O)Cc3cn4ccccc4n3)C2)c1 (stereo unspecified) .
Data returned: -3.15

Data request: Please report the recorded cytotoxicity at 10 µM for "c1ccc(-c2nc(CCNCc3ccncc3)co2)cc1" .
Data returned: 6.07

Data request: Please report the recorded cytotoxicity at 10 µM for O=C(CC1CC1)N1Cc2nccn2CC(Cn2ncccc2=O)C1 (stereo unspecified) .
Data returned: 7.04

Data request: Please report the recorded cytotoxicity at 10 µM for O=C(N1CCOCC(O)C1)C1(c2ccc(Cl)cc2)CCC1 (stereo unspecified) .
Data returned: -4.24

Data request: Please report the recorded cytotoxicity at 10 µM for Cc1nc(CN2CCCC(N(C)CC3(O)CCCCC3)C2)no1 (stereo unspecified) .
Data returned: -10.3

Data request: Please report the recorded cytotoxicity at 10 µM for "COCc1noc(-c2ccc(N(C)Cc3cn(C)nc3C)nc2)n1" .
Data returned: -9.75
